Method notes: Encapsulation efficiency of lipid nanoparticles (Quant-it Ribogreen RNA quantification assay)
Assay type: physicochemical
Setup conditions: LNP encapsulating hEPO mRNA; Table 2
Description: Briefly, a cationic lipid provided herein, DSPC, cholesterol, and PEG-lipid were solubilized in ethanol at a molar ratio of 50:10:38.5:1.5, and mRNA were diluted in 10 to 50 mM citrate buffer, pH=4. […] Lipid nanoparticle size were determined by dynamic light scattering using a Malvern Zetasizer Nano ZS (Malvern UK) using a 173° backscatter detection mode. […]
Measurement type: Encapsulation Efficiency (%)

Known results for compounds:
{"Compound": "CCCCCCCCC(CCCCCC)COC(=O)CCCCCN(CCCCCC(=O)OCC(CCCCCC)CCCCCCCC)CCN(CCO)C1CCCCC1 (stereo not drawn)", "Endpoint result": 96.8}
{"Compound": "CCCCCCCCC(CCCCCC)COC(=O)CCCCCN(CCCCCC(=O)OCC(CCCCCC)CCCCCCCC)CCN(C(=O)CCO)C1CCC1 (stereo not drawn)", "Endpoint result": 96.9}
{"Compound": "CCCCCCCCC(CCCCCC)COC(=O)CCCCCN(CCCCCC(=O)OCC(CCCCCC)CCCCCCCC)CCN(CCO)C1CC1 (stereo not drawn)", "Endpoint result": 98.1}
{"Compound": "CCCCCCCCC(CCCCCC)COC(=O)CCCCCN(CCCCCC(=O)OCC(CCCCCC)CCCCCCCC)CCN(CCO)C1CCC1 (stereo not drawn)", "Endpoint result": 95.7}
{"Compound": "CCCCCCCCC(CCCCCC)COC(=O)CCCCCN(CCCCCC(=O)OCC(CCCCCC)CCCCCCCC)CCN(CCCO)C1CCCCCC1 (stereo not drawn)", "Endpoint result": 96.0}
{"Compound": "CCCCCCCCC(CCCCCC)COC(=O)CCCCCN(CCCCCC(=O)OCC(CCCCCC)CCCCCCCC)CCN(CCO)C1CCCCCC1 (stereo not drawn)", "Endpoint result": 96.3}
{"Compound": "CCCCCCCCC(CCCCCC)COC(=O)CCCCCN(CCCCCC(=O)OCC(CCCCCC)CCCCCCCC)CCN(C)CCO (stereo not drawn)", "Endpoint result": 100.0}

(I) CCCCCCCCC(CCCCCC)COC(=O)CCCCCN(CCCCCC(=O)OCC(CCCCCC)CCCCCCCC)CCN(CCO)C1CCCC1 (stereo not drawn)
(II) CCCCCCCCC(CCCCCC)COC(=O)CCCCCN(CCCCCC(=O)OCC(CCCCCC)CCCCCCCC)CCN(CCO)c1ccccc1 (stereo not drawn)
Enquiry: Param pair: I , II . Output: the one whose Encapsulation Efficiency is numerically greater. Answer with the label corresponding to your selection.
Return: I

====

Method notes: Lipid nanoparticle size by dynamic light scattering (Malvern Zetasizer Nano ZS)
Type: physicochemical
Setup conditions: LNP: cationic lipid/DSPC/cholesterol/PEG-lipid 50:10:38.5:1.5, hEPO mRNA; Table 2
Procedure: Briefly, a cationic lipid provided herein, DSPC, cholesterol, and PEG-lipid were solubilized in ethanol at a molar ratio of 50:10:38.5:1.5, and mRNA were diluted in 10 to 50 mM citrate buffer, pH=4. […] Lipid nanoparticle size were determined by dynamic light scattering using a Malvern Zetasizer Nano ZS (Malvern UK) using a 173° backscatter detection mode. […]
Measurement type: size nm (nm)

Guide cases for size nm, answers given:
{"Compound": "CCCCCCCCC(CCCCCC)COC(=O)CCCCCN(CCCCCC(=O)OCC(CCCCCC)CCCCCCCC)CCN(CCO)C1CCCCC1 (stereo not drawn)", "Result unit": "nm", "size nm": 75.3}
{"Compound": "CCCCCCCCC(CCCCCC)COC(=O)CCCCCN(CCCCCC(=O)OCC(CCCCCC)CCCCCCCC)CCN(CCO)C1CC1 (stereo not drawn)", "Result unit": "nm", "size nm": 57.5}
{"Compound": "CCCCCCCCC(CCCCCC)COC(=O)CCCCCN(CCCCCC(=O)OCC(CCCCCC)CCCCCCCC)CCN(CCO)C1CCC1 (stereo not drawn)", "Result unit": "nm", "size nm": 76.5}
{"Compound": "CCCCCCCCC(CCCCCC)COC(=O)CCCCCN(CCCCCC(=O)OCC(CCCCCC)CCCCCCCC)CCNCCO (stereo not drawn)", "Result unit": "nm", "size nm": 58.5}
{"Compound": "CCCCCCCCC(CCCCCC)COC(=O)CCCCCN(CCCCCC(=O)OCC(CCCCCC)CCCCCCCC)CCN(CCCO)C1CCCCC1 (stereo not drawn)", "Result unit": "nm", "size nm": 77.6}
{"Compound": "CCCCCCCCC(CCCCCC)COC(=O)CCCCCN(CCCCCC(=O)OCC(CCCCCC)CCCCCCCC)CCN(CCCO)C1CCCCCC1 (stereo not drawn)", "Result unit": "nm", "size nm": 69.2}
{"Compound": "CCCCCCCCC(CCCCCC)COC(=O)CCCCCN(CCCCCC(=O)OCC(CCCCCC)CCCCCCCC)CCN(CCO)CCCCCC (stereo not drawn)", "Result unit": "nm", "size nm": 59.2}
{"Compound": "CCCCCCCCC(CCCCCC)COC(=O)CCCCCN(CCCCCC(=O)OCC(CCCCCC)CCCCCCCC)CCN(CCO)C1CCCCCCC1 (stereo not drawn)", "Result unit": "nm", "size nm": 60.5}

(P) CCCCCCCCC(CCCCCC)COC(=O)CCCCCN(CCCCCC(=O)OCC(CCCCCC)CCCCCCCC)CCN(C(=O)CCO)C1CCC1 (stereo not drawn)
(Q) CCCCC/C=C\C/C=C\CCCCCCCCC(CCCCCCCC/C=C\C/C=C\CCCCC)OC(=O)CCCN(C)C [MC3, dilinoleylmethyl-4-dimethylaminobutyrate, reference compound]
Enquiry: Lab note: check whether P or Q has the lower measured size nm. To answer, give the label that identifies your chosen option.
Return: P

(I) CCCCCCCCC(CCCCCC)COC(=O)CCCCCN(CCCCCC(=O)OCC(CCCCCC)CCCCCCCC)CCN(CCO)C1CCCC1 (stereo not drawn)
(II) CCCCCCCCC(CCCCCC)COC(=O)CCCCCN(CCCCCC(=O)OCC(CCCCCC)CCCCCCCC)CCN(CCO)c1ccccc1 (stereo not drawn)
Enquiry: Determine, for I and II , which has the greater value of size nm. // output: label of the selected item
Return: II
